These measurements were taken from patent US20150105252A1.

tested on: morningglory; assay: Test C postemergence; format: in vivo, Ipomoea coccinea; conditions: postemergence, 250 g ai/ha; scale 0 to 100 (0 no effect, 100 complete control)
measure: Plant response rating, Morningglory
Answer with a number only.

Give reported Plant response rating, Morningglory for "CCc1cc(C(=O)NOC(C)C)nn1Cc1ccnc(OC(F)F)c1" (morningglory) 80

Give reported Plant response rating, Morningglory for "CCc1cc(C(=O)NC2CC2)nn1Cc1ccnc(Br)c1" (morningglory) 70

Give reported Plant response rating, Morningglory for "CCONC(=O)c1cc(CC)n(Cc2ccnc(OC(F)F)c2)n1" (morningglory) 70

* * *

test system: crabgrass, large; test: Test A postemergence; format: in vivo, Digitaria sanguinalis; conditions: postemergence, 125 g ai/ha, about 10 days, visual rating on 0 to 100 scale (0 no effect, 100 complete control)
For each of the molecules below, state its Crabgrass, Large plant response rating.
Answer with a number only.

# return recorded Crabgrass, Large plant response rating for entry "Cc1cc(C(=O)NC2CC2)nn1Oc1ccnc(C(F)(F)F)c1" 10

# return recorded Crabgrass, Large plant response rating for entry "CCCCNC(=O)c1cc(C)n(Oc2ccnc(C(F)(F)F)c2)n1" 10

# return recorded Crabgrass, Large plant response rating for entry "CCCCNC(=O)c1cc(I)n(Cc2cccc(C(F)(F)F)c2)n1" 10
